- Target of assay: UniProtKB Q16539
- Sequence (Q16539 whole entry): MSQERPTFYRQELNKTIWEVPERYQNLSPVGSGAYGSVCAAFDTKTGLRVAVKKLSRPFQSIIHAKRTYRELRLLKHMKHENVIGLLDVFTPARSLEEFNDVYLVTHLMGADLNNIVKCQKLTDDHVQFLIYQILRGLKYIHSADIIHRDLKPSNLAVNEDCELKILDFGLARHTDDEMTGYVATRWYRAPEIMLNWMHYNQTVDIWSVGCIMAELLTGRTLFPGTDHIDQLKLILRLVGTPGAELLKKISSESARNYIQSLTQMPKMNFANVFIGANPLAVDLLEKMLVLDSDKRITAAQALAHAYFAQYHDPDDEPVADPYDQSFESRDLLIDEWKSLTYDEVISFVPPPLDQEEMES
- Assay notes: P38 alpha enzyme inhibition assay (Alphascreen kinase activity assay)
- Run conditions: 100 pM p38 alpha, 2 hours preincubation at 25° C., 250 μM ATP, ATF-2 fusion protein; read-out: p38α inhibition
- Procedure: P38 Alpha Enzyme Inhibition Assay The inhibitory activity of compounds was determined using an Alphascreen® (Perkin Elmer) based kinase activity assay. […] Detection was performed by measuring luminescence following the addition of Alphascreen Donor beads (Perkin Elmer 6765300) and Protein A Alphascreen Acceptor beads (Perkin Elmer 6760137), both at a final concentration of 20 ug/ml. IC50 values were determined from concentration-response curves.
Where a name gives a salt, the structure may show the parent alone.
Measured endpoint: IC50

A selection of reference data follows.
[
  {
    "Compound": "CC[C@H](C)c1nnc2ccc(O[C@@H]3CC[C@H](NC(=O)Nc4cc(C(=O)NCCN(C)C)nc(C(C)(C)C)c4)c4ccccc43)cn12 [Example 201, formate salt]",
    "IC50": "< 1 nM"
  },
  {
    "Compound": "CN(C)CCNC(=O)c1nc(NC(=O)N[C@H]2CC[C@@H](Oc3ccc4nnc([C@]5(C)CCCN5C)n4c3)c3ccccc32)cc(C(C)(C)C)n1",
    "IC50": "< 1 nM"
  },
  {
    "Compound": "CC(C)(C)c1cc(NC(=O)N[C@H]2CC[C@@H](Oc3ccc4nnc(C(C)(C)C)n4c3)c3ccccc32)nc(COCCN2CCOCC2)n1",
    "IC50": "1 to 10 nM"
  },
  {
    "Compound": "CCN(C)CCNC(=O)c1nc(NC(=O)N[C@H]2CC[C@@H](Oc3ccc4nnc(C(C)(C)C)n4c3)c3ccccc32)cc(C(C)(C)C)n1",
    "IC50": "< 1 nM"
  },
  {
    "Compound": "CN1CCN(C(C)(C)c2nnc3ccc(O[C@@H]4CC[C@H](NC(=O)Nc5cc(C(=O)NCCO)nc(C(C)(C)C)c5)c5ccccc54)cn23)CC1 [Example 200, formate salt]",
    "IC50": "< 1 nM"
  }
]

Now look at this one.
Query: State its IC50 for this compound: `CC(C)(C)c1cc(NC(=O)N[C@H]2CC[C@@H](Oc3ccc4nnc(C(C)(C)C)n4c3)c3ccccc32)nc(C(=O)NCCN(CCO)CCO)n1`
Reply: < 1 nM

Origin of the recorded values: patent US10364245B2
